- method: Solubility test of GPR 119 agonist compounds (Nephelostar)
- Assay type: physicochemical
- condition_context: aqueous with cosolvent or surfactant or cyclodextrin, kinetic from dmso stock; pH 8, 5% DMSO aqueous solution; read-out: Solubility pH 8
result_type: solubility

>>> observed("CC(C)(F)CN1CCC(COc2ccc(-c3ccc(C(=O)N4CCC[C@@]4(C)C(N)=O)c(F)c3)nc2)CC1")
"> 0.257 mg/mL"
>>> observed("CC(C)(CN1CCC(COc2ccc(-c3ccc(C(=O)N4C[C@H](O)C[C@H]4C(N)=O)c(F)c3)nc2)CC1)C(F)(F)F")
"0.054 mg/mL"
>>> observed("CCC(F)(CC)CN1CCC(COc2ccc(-c3ccc(C(=O)N4C[C@H](O)C[C@@]4(C)C(N)=O)c(F)c3)nc2)CC1")
"0.166 mg/mL"

###

- method: Solubility test of GPR 119 agonist compounds (Nephelostar)
- Type: physicochemical
- condition_context: aqueous with cosolvent or surfactant or cyclodextrin, kinetic from dmso stock; pH 4, 5% DMSO aqueous solution; read-out: Solubility pH 4
result_type: solubility

>>> observed("CCC(F)(CC)CN1CCC(COc2ccc(-c3ccc(C(=O)N4C[C@H](O)C[C@@]4(C)C(N)=O)cc3F)nc2)CC1")
"> 279 µg/mL"
>>> observed("CC(C)(CN1CCC(COc2ccc(-c3ccc(C(=O)N4C[C@H](O)C[C@H]4C(N)=O)cc3)nc2)CC1)C(F)(F)F")
"> 274 µg/mL"
>>> observed("CC(C)(CN1CCC(COc2ccc(-c3ccc(C(=O)N4C[C@H](O)C[C@@]4(C)C(N)=O)c(F)c3)nc2)CC1)C(F)(F)F")
"> 290 µg/mL"
>>> observed("CC(C)(CN1CCC(COc2ccc(-c3ccc(C(=O)N4C[C@H](O)C[C@H]4C(N)=O)cc3F)nc2)CC1)C(F)(F)F")
"> 283 µg/mL"
>>> observed("C[C@@]1(C(N)=O)C[C@@H](O)CN1C(=O)c1ccc(-c2ccc(OCC3CCN(CC4(C(F)(F)F)CCC4)CC3)cn2)c(F)c1")
"> 296 µg/mL"
>>> observed("CC(C)(F)CN1CCC(COc2ccc(-c3ccc(C(=O)N4CCC[C@@]4(C)C(N)=O)c(F)c3)nc2)CC1")
"> 257 µg/mL"
>>> observed("NC(=O)[C@@H]1C[C@@H](O)CN1C(=O)c1ccc(-c2ccc(OCC3CCN(CC4(C(F)(F)F)CCC4)CC3)cn2)c(F)c1")
"> 289 µg/mL"
>>> observed("CCC(F)(CC)CN1CCC(COc2ccc(-c3ccc(C(=O)N4C[C@H](O)C[C@H]4C(N)=O)cc3F)cc2)CC1")
"> 271 µg/mL"
>>> observed("C[C@@]1(C(N)=O)C[C@@H](O)CN1C(=O)c1ccc(-c2ccc(OCC3CCN(CC4(C(F)(F)F)CCC4)CC3)nc2)c(F)c1")
"> 296 µg/mL"
>>> observed("CCc1cnc(N2CCC(c3nc(COc4ccc(-n5cnnn5)cc4)cs3)CC2)nc1 [MBX-2982, reference compound]")
"133 µg/mL"
>>> observed("CC(C)(CN1CCC(COc2ccc(-c3ccc(C(=O)N4C[C@H](O)C[C@H]4C(N)=O)c(F)c3)nc2)CC1)C(F)(F)F")
"> 283 µg/mL"
>>> observed("CCC(F)(CC)CN1CCC(COc2ccc(-c3ccc(C(=O)N4C[C@H](O)C[C@H]4C(N)=O)c(F)c3)nc2)CC1")
"> 272 µg/mL"
>>> observed("CCC(F)(CC)CN1CCC(COc2ccc(-c3ccc(C(=O)N4C[C@H](O)C[C@@]4(C)C(N)=O)c(F)c3)nc2)CC1")
"> 279 µg/mL"
>>> observed("C[C@@]1(C(N)=O)C[C@@H](O)CN1C(=O)c1ccc(-c2ccc(OCC3CCN(CC4(C(F)(F)F)CCC4)CC3)cn2)cc1F")
"> 296 µg/mL"

###

- method: Solubility test of GPR 119 agonist compounds (Nephelostar)
- Format: physicochemical
- condition_context: aqueous with cosolvent or surfactant or cyclodextrin, kinetic from dmso stock; pH 6, 5% DMSO aqueous solution; read-out: Solubility pH 6
result_type: solubility

>>> observed("CC(C)(CN1CCC(COc2ccc(-c3ccc(C(=O)N4C[C@H](O)C[C@@]4(C)C(N)=O)c(F)c3)nc2)CC1)C(F)(F)F")
"203 µg/mL"
>>> observed("CCC(F)(CC)CN1CCC(COc2ccc(-c3ccc(C(=O)N4C[C@H](O)C[C@H]4C(N)=O)c(F)c3)nc2)CC1")
"> 272 µg/mL"
>>> observed("CC(C)(F)CN1CCC(COc2ccc(-c3ccc(C(=O)N4CCC[C@@]4(C)C(N)=O)c(F)c3)nc2)CC1")
"> 257 µg/mL"
>>> observed("CCC(F)(CC)CN1CCC(COc2ccc(-c3ccc(C(=O)N4C[C@H](O)C[C@H]4C(N)=O)cc3F)cc2)CC1")
"157 µg/mL"
>>> observed("NC(=O)[C@@H]1C[C@@H](O)CN1C(=O)c1ccc(-c2ccc(OCC3CCN(CC4(C(F)(F)F)CCC4)CC3)cn2)c(F)c1")
"> 289 µg/mL"
>>> observed("C[C@@]1(C(N)=O)C[C@@H](O)CN1C(=O)c1ccc(-c2ccc(OCC3CCN(CC4(C(F)(F)F)CCC4)CC3)nc2)c(F)c1")
"> 296 µg/mL"

###

- target: human GPR119 receptor (Homo sapiens, UniProt Q8TDV5)
- Construct: host or cells: GeneBLAzer T-Rex GPR 119 CHO-K1 DA cells (CHO-K1)
- Sequence (Q8TDV5 whole entry): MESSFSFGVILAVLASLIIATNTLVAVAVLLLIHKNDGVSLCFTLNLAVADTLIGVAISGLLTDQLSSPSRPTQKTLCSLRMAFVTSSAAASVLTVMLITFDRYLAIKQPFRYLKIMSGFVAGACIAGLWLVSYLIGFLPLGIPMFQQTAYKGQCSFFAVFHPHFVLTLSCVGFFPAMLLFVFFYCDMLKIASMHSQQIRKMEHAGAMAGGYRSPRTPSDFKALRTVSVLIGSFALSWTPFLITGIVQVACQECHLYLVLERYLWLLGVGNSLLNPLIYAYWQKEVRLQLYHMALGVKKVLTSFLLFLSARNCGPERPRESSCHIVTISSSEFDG
- method: Activity test for human GPR119 receptor (GeneBLAzer T-Rex GPR 119 CHO-K1 DA cells)
- Assay type: cell-based
- condition_context: judgement on the EC50 values of Table 11
- Method: 1. Human GPR119 Receptor Cell As a human GPR119 receptor expression cell for this test, the cell line “GeneBLAzer™ T-Rex GPR 119 CHO-K1 DA cells” that is commercially available from Invitrogen, was used. The cell was incubated in the DMEM media containing 1% dialyzed fetal bovine serum etc. […] The human GPR119 receptor expressing cell was used to this test. […] After treatment of color development agent for 2 hours, the fluorescence value was determined with plate reader. […]
result_type: activity for human GPR119 receptor (in words)

>>> observed("CC(C)(CN1CCC(COc2ccc(-c3ccc(C(=O)N4C[C@H](O)C[C@H]4C(N)=O)c(F)c3)nc2)CC1)C(F)(F)F")
"excellent activity"
>>> observed("NC(=O)[C@@H]1CCCN1C(=O)c1ccc(-c2ccc(OCC3CCN(CC(F)(F)C(F)(F)F)CC3)cn2)cc1F")
"excellent activity"
>>> observed("C[C@@]1(C(N)=O)C[C@@H](O)CN1C(=O)c1ccc(-c2ccc(OCC3CCN(CC4(C(F)(F)F)CCC4)CC3)cn2)c(F)c1")
"excellent activity"
>>> observed("NC(=O)C1CC(O)CCN1C(=O)c1ccc(-c2cnc(OCC3CCN(CC4(C(F)(F)F)CCC4)CC3)cn2)cc1F (stereo not drawn)")
"excellent activity"
>>> observed("CCC(F)(CC)CN1CCC(COc2ccc(-c3ccc(C(=O)N4C[C@H](O)C[C@@]4(C)C(N)=O)c(F)c3)nc2)CC1")
"excellent activity"
>>> observed("C[C@@]1(C(N)=O)CCCN1C(=O)c1ccc(-c2ccc(OCC3CCN(CC4(C(F)(F)F)CCC4)CC3)cn2)cc1F")
"excellent activity"

###

- target: human GPR119 receptor (Homo sapiens)
- method: Activity test for human GPR119 receptor (GeneBLAzer T-Rex GPR 119 CHO-K1 DA cells)
- condition_context: human GPR119 receptor expressing CHO-K1 cells, 5 hours treatment; read-out: hGPR119 EC50
pEC50: −log10 of the molar value.
result_type: pEC50

>>> observed("CCC(F)(CC)CN1CCC(COc2ccc(-c3ccc(C(=O)N4CC[C@H](O)[C@H]4C(N)=O)cc3)c(F)c2)CC1 [Compound 1245]")
9.00
>>> observed("CC(C)(CN1CCC(COc2ccc(-c3ccc(C(=O)N4CCC[C@H]4C(N)=O)c(F)c3)nc2)CC1)C(F)(F)F [Compound 1267]")
10.05
>>> observed("C[C@@]1(C(N)=O)CCCN1C(=O)c1ccc(-c2cnc(OCC3CCN(CC4(C(F)(F)F)CCC4)CC3)cn2)cc1F [Compound 1263]")
10.40
>>> observed("CCC(F)(CC)CN1CCC(COc2ccc(-c3ccc(C(=O)N4C[C@H](O)C[C@@]4(C)C(N)=O)cc3F)nc2)CC1 [Compound 1292]")
7.92
>>> observed("CC(C)(CN1CCC(COc2ccc(-c3ccc(C(=O)N4C[C@H](O)C[C@H]4C(N)=O)cc3)nc2)CC1)C(F)(F)F [Compound 1322]")
8.22
>>> observed("CCC(F)(CC)CN1CCC(COc2ccc(-c3ccc(C(=O)N4C[C@H](O)C[C@@H]4C(N)=O)cc3F)cc2)CC1 [Compound 1321]")
7.28
>>> observed("CC(C)(CN1CCC(COc2ccc(-c3ccc(C(=O)N4C[C@H](O)C[C@H]4C(N)=O)cc3F)nc2)CC1)C(F)(F)F [Compound 1323]")
8.40
>>> observed("NC(=O)[C@@H]1[C@@H](O)CCN1C(=O)c1ccc(-c2cnc(OCC3CCN(CC4(C(F)(F)F)CCC4)CC3)cn2)c(F)c1 [Compound 1253]")
9.70
>>> observed("C[C@@]1(C(N)=O)C[C@@H](O)CN1C(=O)c1ccc(-c2ccc(OCC3CCN(CC4(C(F)(F)F)CCC4)CC3)nc2)c(F)c1 [Compound 1325]")
7.85
>>> observed("CCC(F)(CC)CN1CCC(COc2cnc(-c3ccc(C(=O)N4C[C@H](O)C[C@H]4C(N)=O)c(F)c3)nc2)CC1 [Compound 1257]")
8.00
>>> observed("C[C@@]1(C(N)=O)C[C@@H](O)CN1C(=O)c1ccc(-c2ccc(OCC3CCN(CC4(C(F)(F)F)CCC4)CC3)nc2)cc1F [Compound 1326]")
7.30
>>> observed("NC(=O)[C@@H]1[C@@H](O)CCN1C(=O)c1ccc(-c2cnc(OCC3CCN(CC4(C(F)(F)F)CCC4)CC3)cn2)cc1F [Compound 1249]")
10.00
>>> observed("CC(C)(CN1CCC(COc2ccc(-c3ccc(C(=O)N4C[C@H](O)C[C@@]4(C)C(N)=O)c(F)c3)nc2)CC1)C(F)(F)F [Compound 1294]")
7.72
>>> observed("CC(C)(CN1CCC(COc2ccc(-c3ccc(C(=O)N4CCC[C@@]4(C)C(N)=O)c(F)c3)nc2)CC1)C(F)(F)F [Compound 1269]")
10.05
>>> observed("CCC(F)(CC)CN1CCC(COc2ccc(-c3ccc(C(=O)N4CCC[C@@]4(C)C(N)=O)c(F)c3)nc2)CC1 [Compound 1299]")
8.05
>>> observed("NC(=O)[C@@H]1C[C@@H](O)CN1C(=O)c1ccc(-c2ccc(OCC3CCN(CC4(C(F)(F)F)CCC4)CC3)nc2)cc1F [Compound 1317]")
7.22
>>> observed("C[C@@]1(C(N)=O)C[C@@H](O)CN1C(=O)c1ccc(-c2ccc(OCC3CCN(CC4(C(F)(F)F)CCC4)CC3)cn2)c(F)c1 [Compound 1329]")
8.00
>>> observed("NC(=O)[C@@H]1C[C@@H](O)CN1C(=O)c1ccc(-c2ccc(OCC3CCN(CC(F)(F)C(F)(F)F)CC3)cn2)cc1F [Compound 1265]")
10.30
>>> observed("CCC(F)(CC)CN1CCC(COc2ccc(-c3ccc(C(=O)N4C[C@H](O)C[C@@]4(C)C(N)=O)cc3)nc2)CC1 [Compound 1309]")
7.33
>>> observed("CCC(F)(CC)CN1CCC(COc2ccc(-c3ccc(C(=O)N4CC[C@H](O)[C@H]4C(N)=O)c(F)c3)cc2F)CC1 [Compound 1244]")
9.52
